- Read-out: urokinase plasminogen activator (uPA), PLAU (gene 5328)
- assay info: BSK_BE3C_uPA: BioMAP Diversity Plus: BE3C Assay for urokinase plasminogen activator (uPA) Biomarker Activity (AID 2283038);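 note: uPA protein level quantified by ELISA in cell cultures; uPA read one day after compound addition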
- experimental conditions: primary human bronchial epithelial cells; actives raise or lower the signal
Calls of active or inactive are those of the source. Rule for the calls: active = hit-call score of the fitted dose curve at least 0.9, where 1 is the maximum; inactive = score below 0.9.
Permitted responses: active, inactive

Here's what some known entries look like.
S=C(NC1CCCCC1)NC1CCCCC1	inactive
Nc1ccc(N)c(Cl)c1	inactive
O=C1CCCN1CCO	inactive

Query block: Hi, do you know how C=CCOCC(O)CCl (stereo not given) came out in this test?
Result block: inactive

----------
- target under test: Heat shock factor protein 1 (Homo sapiens) (UniProt Q00613)
- Sequence (Q00613 whole entry, looked up): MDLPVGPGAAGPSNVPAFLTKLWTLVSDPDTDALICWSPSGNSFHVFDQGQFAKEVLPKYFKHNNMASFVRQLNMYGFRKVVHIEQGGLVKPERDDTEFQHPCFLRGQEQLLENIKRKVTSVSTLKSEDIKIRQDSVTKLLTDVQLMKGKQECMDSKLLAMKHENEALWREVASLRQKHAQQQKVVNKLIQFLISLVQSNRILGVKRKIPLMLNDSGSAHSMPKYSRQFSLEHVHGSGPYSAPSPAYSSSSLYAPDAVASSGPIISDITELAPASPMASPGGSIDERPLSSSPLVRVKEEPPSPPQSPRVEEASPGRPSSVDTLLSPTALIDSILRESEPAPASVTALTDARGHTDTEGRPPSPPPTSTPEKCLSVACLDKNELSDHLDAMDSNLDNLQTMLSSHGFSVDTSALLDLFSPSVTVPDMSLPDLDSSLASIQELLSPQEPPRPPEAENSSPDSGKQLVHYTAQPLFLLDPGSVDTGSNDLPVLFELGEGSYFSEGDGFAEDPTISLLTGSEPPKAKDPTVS
- assay info: ATG_HSE_CIS: Attagene CIS-FACTORIAL HepG2 Assay for human Heat Shock Transcription Factor 1 (HSE) (AID 2282953)
- experimental conditions: HepG2 HSE cis-reporter, Attagene RNA transcription; actives raise or lower the signal
Calls of active or inactive are those of the source. How the source made its calls: active means hit-call score of the fitted dose curve at least 0.9, where 1 is the maximum; inactive means score below 0.9.
// classify into active, inactive

Some solved cases for reference:
c1c[nH]cn1	inactive
CCC(Cc1ccccc1)(C(=O)c1ccc(N2CCOCC2)cc1)N(C)C (configuration not stated)	active
CC1(C)S[C@@H]2[C@H](NC(=O)COc3ccccc3)C(=O)N2[C@H]1C(=O)O	inactive

Query block: I would be grateful if you could indicate the recorded call for `O=c1n(CCO)c(=O)n(CCO)c(=O)n1CCO` .
Result block: inactive

Query block: Next compound up: C=C1C2CCC(C2)C1(C)C (configuration not stated)
Result block: inactive

Query block: Then what about the compound `CC1=Nc2ccc3ccccc3c2C1(C)C` ?
Result block: active

Query block: // same read-out, input: `CC1(C)O[C@@H]2C[C@H]3[C@@H]4C[C@H](F)C5=CC(=O)C=C[C@]5(C)[C@@]4(F)[C@@H](O)C[C@]3(C)[C@]2(C(=O)CO)O1`
Result block: inactive

Query block: Another compound: O=C(O)CC(C(=O)O)C(CC(=O)O)C(=O)O (configuration not stated)
Result block: inactive

Query block: Same for `COC(=O)c1cc(Cl)ccc1[N+](=O)[O-]`
Result block: inactive

Query block: Quick one: `CCc1ccc2c(c1)C(=O)c1ccccc1C2=O`
Result block: inactive
